I'd be grateful if you could share measured glycan array binding signal (z-score) for these entries.
Target: Gal(b1-3)GlcNAc6S
Experiment: glycan array binding signal (z-score within array); higher = stronger binding
Conditions: glycan notation: IUPAC condensed, linker removed
Only a selection was taken, and the strongest signals are over-represented in it overall.

Ask: Looking for the measured glycan array binding signal (z-score) of VLRB.aGPA.23-GCN4-biotin (Petromyzon marinus) (protein) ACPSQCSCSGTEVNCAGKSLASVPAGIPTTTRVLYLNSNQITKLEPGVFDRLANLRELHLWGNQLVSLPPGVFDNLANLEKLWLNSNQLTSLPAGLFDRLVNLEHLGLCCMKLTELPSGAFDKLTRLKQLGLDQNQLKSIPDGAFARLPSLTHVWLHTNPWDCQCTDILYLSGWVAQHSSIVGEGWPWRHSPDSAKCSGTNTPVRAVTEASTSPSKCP , can you help?
Reply: -0.09

Ask: Looking for the measured glycan array binding signal (z-score) of TAL6-4LysM (Trichoderma atroviride) (protein) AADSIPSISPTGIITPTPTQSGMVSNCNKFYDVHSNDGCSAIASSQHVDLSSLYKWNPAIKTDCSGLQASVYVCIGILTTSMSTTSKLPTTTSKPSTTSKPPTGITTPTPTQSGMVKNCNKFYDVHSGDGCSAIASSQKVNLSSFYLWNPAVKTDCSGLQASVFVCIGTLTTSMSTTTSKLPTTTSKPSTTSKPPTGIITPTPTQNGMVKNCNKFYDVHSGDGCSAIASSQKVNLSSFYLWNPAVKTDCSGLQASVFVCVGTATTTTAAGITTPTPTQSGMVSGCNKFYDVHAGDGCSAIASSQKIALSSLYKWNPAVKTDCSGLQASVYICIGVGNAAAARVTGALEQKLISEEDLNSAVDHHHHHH , can you help?
Reply: 3.15

Ask: Looking for the measured glycan array binding signal (z-score) of MGL (Homo sapiens), Q8IUN9 (protein) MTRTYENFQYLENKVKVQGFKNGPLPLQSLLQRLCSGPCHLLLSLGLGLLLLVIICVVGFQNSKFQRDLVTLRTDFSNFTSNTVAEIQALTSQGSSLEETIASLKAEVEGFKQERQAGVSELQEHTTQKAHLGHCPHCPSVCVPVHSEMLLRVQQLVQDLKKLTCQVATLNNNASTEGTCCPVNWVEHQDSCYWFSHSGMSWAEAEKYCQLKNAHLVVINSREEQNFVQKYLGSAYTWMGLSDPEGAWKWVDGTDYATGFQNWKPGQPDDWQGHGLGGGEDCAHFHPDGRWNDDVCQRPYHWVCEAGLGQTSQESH , can you help?
Reply: -0.249

Ask: Looking for the measured glycan array binding signal (z-score) of rCNL (Clitocybe nebularis), B2ZRS9 (protein) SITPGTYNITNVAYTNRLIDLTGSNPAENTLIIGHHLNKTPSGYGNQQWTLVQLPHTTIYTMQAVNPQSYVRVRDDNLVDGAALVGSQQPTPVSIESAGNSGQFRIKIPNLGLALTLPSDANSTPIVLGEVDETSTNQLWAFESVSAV , can you help?
Reply: -0.226

Ask: Looking for the measured glycan array binding signal (z-score) of OS9-MRH (Homo sapiens), Q13438 (protein) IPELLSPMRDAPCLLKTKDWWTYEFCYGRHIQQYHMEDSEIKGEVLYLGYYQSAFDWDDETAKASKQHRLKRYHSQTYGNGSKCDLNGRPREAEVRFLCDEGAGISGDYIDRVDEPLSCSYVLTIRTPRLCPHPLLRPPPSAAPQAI , can you help?
Reply: -0.326

Ask: Looking for the measured glycan array binding signal (z-score) of PhypaEULS3 (Physcomitrella patens) (protein) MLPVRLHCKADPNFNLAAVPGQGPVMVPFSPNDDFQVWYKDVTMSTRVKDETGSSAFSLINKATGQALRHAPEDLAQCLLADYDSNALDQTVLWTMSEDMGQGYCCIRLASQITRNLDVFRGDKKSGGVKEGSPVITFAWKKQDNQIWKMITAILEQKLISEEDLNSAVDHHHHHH , can you help?
Reply: 1.42

Ask: Looking for the measured glycan array binding signal (z-score) of Agalectin (Anopheles gambiae) (protein) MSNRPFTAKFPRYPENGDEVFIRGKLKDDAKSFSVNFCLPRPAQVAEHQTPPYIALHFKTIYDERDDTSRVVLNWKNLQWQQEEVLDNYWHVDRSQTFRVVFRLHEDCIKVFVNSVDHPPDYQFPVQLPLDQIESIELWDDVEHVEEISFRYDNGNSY , can you help?
Reply: -1.14

Ask: Looking for the measured glycan array binding signal (z-score) of AT5G01260(PC)(40) (Arabidopsis thaliana), Q9LFB0 (protein) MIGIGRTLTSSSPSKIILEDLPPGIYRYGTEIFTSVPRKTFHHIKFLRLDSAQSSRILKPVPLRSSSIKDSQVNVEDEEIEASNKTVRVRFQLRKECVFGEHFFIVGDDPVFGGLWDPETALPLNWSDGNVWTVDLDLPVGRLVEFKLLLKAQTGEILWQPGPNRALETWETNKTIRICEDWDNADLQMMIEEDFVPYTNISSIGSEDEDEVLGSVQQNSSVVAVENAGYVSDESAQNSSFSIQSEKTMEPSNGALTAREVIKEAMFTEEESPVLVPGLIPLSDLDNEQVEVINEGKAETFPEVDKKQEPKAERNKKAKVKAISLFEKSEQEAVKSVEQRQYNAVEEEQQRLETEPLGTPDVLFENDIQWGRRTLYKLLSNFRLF , can you help?
Reply: 0.146
